Hello, the source for this data is paper PMC5632533, in case you need it.

# Tested on: ICR (CD-1) mice
# EXPERIMENTAL DETAILS: In vivo toxicity in mice (SC, IN, IP routes)
# Set-up: unit not given here
# STATED CONDITIONS: serum; SC, 3 doses (1hr, 12hr, 24hr); head doses: RN7-IN10, RN7-IN8 20 mg/kg; RN7-IN9, RN7-IN6 10 mg/kg; day 7; mean±SD, 4 mice
ENDPOINT NAME: Aspartate aminotransferase, AST

Here are 3 substances together with their reported answers.
| SUBSTANCE | ENDPOINT NAME | OBSERVED MEASUREMENT |
| --- | --- | --- |
| FLGGLIKWKWPWWPWRR-NH2 [RN7-IN10, hybrid peptide of ranalexin (residues 1-7) and indolicidin (residues 4-13)] | Aspartate aminotransferase, AST | 175±25.41 |
| FLGGLIKKWPWWPWRR-NH2 [RN7-IN9, hybrid peptide of ranalexin (residues 1-7) and indolicidin (residues 5-13)] | Aspartate aminotransferase, AST | 188.33±11.22 |
| FLGGLIKWWPWRR-NH2 [RN7-IN6, hybrid peptide of ranalexin (residues 1-7) and indolicidin (residues 8-13)] | Aspartate aminotransferase, AST | 158.25±18.9 |

q: Endpoint output: Aspartate aminotransferase, AST of FLGGLIKWPWWPWRR-NH2 [RN7-IN8, hybrid peptide of ranalexin (residues 1-7) and indolicidin (residues 6-13)] . Value?
a: 170.75±14.52
